As shown below, each of these compounds has a reported IC50 value.
biological target: Receptor tyrosine-protein kinase erbB-2 (Homo sapiens); experiment: Inhibition of N-terminal GST-tagged human HER2 (Lys676 to Val1255 residues) expressed in baculovirus expression system using biotinylated FLT3 at Tyr589 as substrate preincubated for 5 mins followed by substrate addition measured after 30 mins by DELFIA method

Previously resolved entries follow.
C#Cc1cc(Nc2ncnc3cc(OC)c(OCCCCCCC(=O)NO)cc23)ccc1O ≤ 100 nM
C[C@@H](Nc1ncnc2[nH]c(-c3ccc(CN4CCC(NCCCCCCCC(=O)NO)CC4)cc3)cc12)c1ccccc1 ≤ 100 nM
C[C@@H](Nc1ncnc2[nH]c(-c3ccc(CNCc4ccc(/C=C/C(=O)NO)cc4)cc3)cc12)c1ccccc1 ≥ 10000 nM
COc1cc2ncnc(Nc3ccc(F)c(Cl)c3)c2cc1NC(=O)CCCCCCC(=O)NO 100 to 1000 nM
O=C(CCCCCCOc1ccc2ncnc(Nc3ccc(F)c(Cl)c3)c2c1)NO 100 to 1000 nM

The compound C[C@@H](Nc1ncnc2[nH]c(-c3ccc(CN4CCN(CCCCCCC(=O)NO)CC4)cc3)cc12)c1ccccc1 showed IC50 equal to ≤ 100 nM

The compound C#Cc1cccc(Nc2ncnc3cc(OCCCCCCC(=O)NO)c(OCCOC)cc23)c1 showed IC50 equal to 100 to 1000 nM

The compound COCCOc1cc2ncnc(Nc3ccc(F)c(Cl)c3)c2cc1OCCCCCCC(=O)NO showed IC50 equal to 100 to 1000 nM

The compound C[C@@H](Nc1ncnc2[nH]c(-c3ccc(C(=O)NO)cc3)cc12)c1ccccc1 showed IC50 equal to ≤ 100 nM

* * *

target: Receptor tyrosine-protein kinase erbB-2 (Homo sapiens, UniProt P04626); assay: Inhibition of N-terminal GST-tagged human HER2 (Lys676 to Val1255 residues) expressed in baculovirus expression system using biotinylated FLT3 at Tyr589 as substrate preincubated for 5 mins followed by substrate addition measured after 30 mins by DELFIA method
Sequence (P04626 whole entry): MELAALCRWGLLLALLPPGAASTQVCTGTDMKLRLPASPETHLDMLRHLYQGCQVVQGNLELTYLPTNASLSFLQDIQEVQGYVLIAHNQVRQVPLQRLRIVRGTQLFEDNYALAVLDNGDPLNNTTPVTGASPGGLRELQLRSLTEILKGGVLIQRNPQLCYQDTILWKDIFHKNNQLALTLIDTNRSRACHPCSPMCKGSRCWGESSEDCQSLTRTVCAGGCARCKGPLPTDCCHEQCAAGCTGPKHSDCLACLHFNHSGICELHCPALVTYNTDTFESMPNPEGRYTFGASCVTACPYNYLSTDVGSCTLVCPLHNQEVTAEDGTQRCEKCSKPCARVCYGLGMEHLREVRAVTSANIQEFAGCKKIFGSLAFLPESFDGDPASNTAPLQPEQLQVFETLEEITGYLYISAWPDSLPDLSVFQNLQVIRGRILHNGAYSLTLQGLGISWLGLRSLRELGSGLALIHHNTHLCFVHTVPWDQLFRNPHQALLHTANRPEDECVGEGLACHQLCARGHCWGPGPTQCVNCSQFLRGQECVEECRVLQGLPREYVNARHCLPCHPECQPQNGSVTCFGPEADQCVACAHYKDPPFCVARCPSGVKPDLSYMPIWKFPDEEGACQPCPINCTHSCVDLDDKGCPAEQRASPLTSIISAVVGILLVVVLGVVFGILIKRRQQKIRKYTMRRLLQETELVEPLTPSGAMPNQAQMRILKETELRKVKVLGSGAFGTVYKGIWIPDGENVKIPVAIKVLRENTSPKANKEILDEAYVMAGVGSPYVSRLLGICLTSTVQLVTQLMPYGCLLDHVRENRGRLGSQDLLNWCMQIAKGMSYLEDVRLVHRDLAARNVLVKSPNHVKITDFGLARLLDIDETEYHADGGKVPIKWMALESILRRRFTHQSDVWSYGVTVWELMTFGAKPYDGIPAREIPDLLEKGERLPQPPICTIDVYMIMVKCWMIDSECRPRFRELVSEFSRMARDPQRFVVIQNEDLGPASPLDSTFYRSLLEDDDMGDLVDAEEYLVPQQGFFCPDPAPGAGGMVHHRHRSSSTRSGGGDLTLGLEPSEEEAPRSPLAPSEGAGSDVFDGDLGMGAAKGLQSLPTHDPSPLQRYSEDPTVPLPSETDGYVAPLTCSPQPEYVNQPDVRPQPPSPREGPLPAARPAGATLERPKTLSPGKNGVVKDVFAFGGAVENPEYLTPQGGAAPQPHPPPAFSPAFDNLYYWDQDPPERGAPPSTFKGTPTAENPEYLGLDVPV
pIC50: −log10 of the molar value.
Observed Property: pIC50

C[C@@H](Nc1ncnc2c1cc(-c1ccc(C(=O)NCCNCCCCCCC(=O)NO)cc1)n2C)c1ccccc1 6.00 to 7.00
C[C@@H](Nc1ncnc2[nH]c(-c3ccc(C(=O)NCCNCCCCCC(=O)NO)cc3)cc12)c1ccccc1 6.00 to 7.00
C[C@@H](Nc1ncnc2[nH]c(-c3ccc(C(=O)NCCNCCCCCCC(=O)NO)cc3)cc12)c1ccccc1 6.00 to 7.00

Read the next record carefully.
I looked up C[C@@H](Nc1ncnc2[nH]c(-c3ccc(OCCCCCCC(=O)NO)cc3)cc12)c1ccccc1 and its pIC50 for Receptor tyrosine-protein kinase erbB-2 (Homo sapiens, UniProt P04626) was 6.00 to 7.00

* * *

target: Epidermal growth factor receptor (Homo sapiens, UniProt P00533); assay: Inhibition of N-terminal GST-fused human EGFR (His672 to Ala1210 residues) expressed in baculovirus expression system using biotinylated PTP1B at Tyr66 as substrate preincubated for 5 mins followed by substrate addition measured after 30 mins by DELFIA
Sequence (P00533 whole entry, the tested form may be a part): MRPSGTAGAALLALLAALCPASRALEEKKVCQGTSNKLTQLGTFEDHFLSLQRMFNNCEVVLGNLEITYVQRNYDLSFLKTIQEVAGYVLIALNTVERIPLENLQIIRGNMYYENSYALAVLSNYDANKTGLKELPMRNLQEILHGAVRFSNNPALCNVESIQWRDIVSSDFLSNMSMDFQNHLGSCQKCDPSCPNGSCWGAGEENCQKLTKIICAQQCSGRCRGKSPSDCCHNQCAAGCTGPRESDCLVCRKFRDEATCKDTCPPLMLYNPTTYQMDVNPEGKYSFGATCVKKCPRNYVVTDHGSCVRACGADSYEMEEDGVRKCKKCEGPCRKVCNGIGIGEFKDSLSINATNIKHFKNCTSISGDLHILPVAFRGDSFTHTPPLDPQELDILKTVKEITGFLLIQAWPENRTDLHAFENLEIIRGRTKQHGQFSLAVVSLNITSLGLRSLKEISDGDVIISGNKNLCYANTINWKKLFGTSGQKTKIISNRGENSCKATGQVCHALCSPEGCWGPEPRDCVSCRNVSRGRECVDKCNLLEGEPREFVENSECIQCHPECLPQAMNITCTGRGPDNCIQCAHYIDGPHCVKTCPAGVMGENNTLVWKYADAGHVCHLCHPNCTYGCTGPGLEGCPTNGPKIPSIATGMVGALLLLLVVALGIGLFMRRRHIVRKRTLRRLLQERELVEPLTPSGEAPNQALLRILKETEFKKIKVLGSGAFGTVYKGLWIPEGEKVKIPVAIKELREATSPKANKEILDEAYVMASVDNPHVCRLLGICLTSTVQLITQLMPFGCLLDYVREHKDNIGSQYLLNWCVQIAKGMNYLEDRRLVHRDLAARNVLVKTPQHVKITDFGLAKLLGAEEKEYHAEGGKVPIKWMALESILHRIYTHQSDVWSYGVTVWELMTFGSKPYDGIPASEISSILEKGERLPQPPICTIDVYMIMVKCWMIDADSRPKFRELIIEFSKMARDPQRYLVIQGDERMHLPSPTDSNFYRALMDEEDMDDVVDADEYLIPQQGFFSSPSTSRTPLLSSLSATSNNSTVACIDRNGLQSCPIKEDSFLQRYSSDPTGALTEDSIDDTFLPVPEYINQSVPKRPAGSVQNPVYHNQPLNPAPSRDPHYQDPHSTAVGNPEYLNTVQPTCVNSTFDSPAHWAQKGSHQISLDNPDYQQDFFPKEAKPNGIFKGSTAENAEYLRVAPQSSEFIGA
Observed Property: IC50

C[C@@H](Nc1ncnc2[nH]c(-c3ccc(C(=O)NCCNCCCCCC(=O)NO)cc3)cc12)c1ccccc1 ≤ 100 nM
C[C@@H](Nc1ncnc2[nH]c(-c3ccc(OCCCCCCC(=O)NO)cc3)cc12)c1ccc(F)cc1 100 to 1000 nM
C[C@@H](Nc1ncnc2[nH]c(-c3ccc(CNCCCCCCC(=O)NO)cc3)cc12)c1ccccc1 ≤ 100 nM
C[C@@H](Nc1ncnc2[nH]c(-c3ccc(CN4CCN(CCCC(=O)NO)CC4)cc3)cc12)c1ccccc1 ≤ 100 nM
C[C@@H](Nc1ncnc2[nH]c(-c3ccc(CNCC(=O)NO)cc3)cc12)c1ccccc1 1000 to 10000 nM

The compound C[C@@H](Nc1ncnc2[nH]c(-c3ccc(CNCCCCCC(=O)NO)cc3)cc12)c1ccccc1 showed IC50 equal to ≤ 100 nM

The compound C[C@@H](Nc1ncnc2[nH]c(-c3ccc(NC(=O)CCCCCCC(=O)NO)cc3)cc12)c1ccccc1 showed IC50 equal to ≤ 100 nM

The compound C[C@@H](Nc1ncnc2[nH]c(-c3ccc(OCCCCCCC(=O)NO)cc3)cc12)c1ccccc1 showed IC50 equal to ≤ 100 nM

The compound C[C@@H](Nc1ncnc2[nH]c(-c3ccc(OCCCCCC(=O)NO)cc3)cc12)c1ccccc1 showed IC50 equal to ≤ 100 nM

* * *

target: Vascular endothelial growth factor receptor 2 (Homo sapiens); assay: Inhibition of N-terminal GST-His6-thrombin cleavage site-fused human VEGFR2 (Asp805 to Val1356 residues) expressed in baculovirus expression system using biotinylated gastrin precursor at Tyr87 as substrate preincubated for 5 mins followed by substrate addition measured after 30 mins by DELFIA method
Sequence (P35968 whole entry, the tested form may be a part): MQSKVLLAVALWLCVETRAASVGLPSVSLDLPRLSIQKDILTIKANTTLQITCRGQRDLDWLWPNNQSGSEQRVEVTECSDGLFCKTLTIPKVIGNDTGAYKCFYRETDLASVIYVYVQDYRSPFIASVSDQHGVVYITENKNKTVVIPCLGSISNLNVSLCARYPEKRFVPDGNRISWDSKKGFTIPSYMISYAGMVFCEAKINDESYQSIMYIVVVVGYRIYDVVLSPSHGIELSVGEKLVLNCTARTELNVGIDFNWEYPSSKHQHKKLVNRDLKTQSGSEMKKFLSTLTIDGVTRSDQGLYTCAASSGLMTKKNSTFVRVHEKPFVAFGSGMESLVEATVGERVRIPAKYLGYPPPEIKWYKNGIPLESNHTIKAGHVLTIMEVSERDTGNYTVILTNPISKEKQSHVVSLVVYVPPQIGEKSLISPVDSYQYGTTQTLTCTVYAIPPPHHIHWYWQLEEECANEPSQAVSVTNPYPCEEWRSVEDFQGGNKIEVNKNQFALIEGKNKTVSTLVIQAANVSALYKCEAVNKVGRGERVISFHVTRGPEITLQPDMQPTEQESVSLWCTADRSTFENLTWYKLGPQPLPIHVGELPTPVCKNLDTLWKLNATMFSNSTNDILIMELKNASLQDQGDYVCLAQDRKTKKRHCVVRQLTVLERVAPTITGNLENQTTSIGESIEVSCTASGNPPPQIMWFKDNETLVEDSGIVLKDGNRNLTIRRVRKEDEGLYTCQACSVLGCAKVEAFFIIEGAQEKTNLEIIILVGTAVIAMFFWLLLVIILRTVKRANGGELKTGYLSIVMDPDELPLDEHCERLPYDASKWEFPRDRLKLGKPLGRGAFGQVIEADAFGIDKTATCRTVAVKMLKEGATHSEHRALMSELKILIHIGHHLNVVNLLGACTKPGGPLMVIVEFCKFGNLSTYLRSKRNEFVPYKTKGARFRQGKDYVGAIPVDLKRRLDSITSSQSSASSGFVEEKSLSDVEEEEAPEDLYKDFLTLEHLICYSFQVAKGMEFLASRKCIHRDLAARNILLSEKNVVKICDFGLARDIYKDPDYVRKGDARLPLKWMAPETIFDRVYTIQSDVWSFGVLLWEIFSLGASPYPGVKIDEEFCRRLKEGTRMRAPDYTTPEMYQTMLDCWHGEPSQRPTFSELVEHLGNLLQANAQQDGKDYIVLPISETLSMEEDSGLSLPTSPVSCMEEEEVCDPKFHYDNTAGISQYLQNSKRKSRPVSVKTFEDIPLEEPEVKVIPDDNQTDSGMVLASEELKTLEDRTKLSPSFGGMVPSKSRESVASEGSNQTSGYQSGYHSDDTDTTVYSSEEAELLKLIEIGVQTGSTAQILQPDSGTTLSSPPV
Observed Property: IC50

Previously resolved entries follow.
COc1cc2ncnc(Nc3ccc(F)c(Cl)c3)c2cc1OCCCCCCC(=O)NO 100 to 1000 nM
Cc1[nH]c(/C=C2\C(=O)Nc3ccc(F)cc32)c(C)c1C(=O)NCCCCCCCC(=O)NO ≤ 100 nM
C[C@@H](Nc1ncnc2[nH]c(-c3ccc(C(=O)NCCNCCCCCC(=O)NO)cc3)cc12)c1ccccc1 100 to 1000 nM

The compound C[C@@H](Nc1ncnc2[nH]c(-c3ccc(OCCCC(=O)NO)cc3)cc12)c1ccccc1 showed IC50 equal to 100 to 1000 nM

The compound Cc1[nH]c(/C=C2\C(=O)Nc3ccc(F)cc32)c(C)c1C(=O)NCCOc1ccc(/C=C/C(=O)NO)cc1 showed IC50 equal to ≤ 100 nM

The compound C[C@@H](Nc1ncnc2[nH]c(-c3ccc(CNCc4ccc(/C=C/C(=O)NO)cc4)cc3)cc12)c1ccccc1 showed IC50 equal to ≥ 10000 nM

The compound C[C@@H](Nc1ncnc2[nH]c(-c3ccc(OCCCCCC(=O)NO)cc3)cc12)c1ccccc1 showed IC50 equal to 1000 to 10000 nM

The compound O=C(CCCC(=O)Nc1cc(Oc2ccc(NC(=O)Nc3ccc(Cl)c(C(F)(F)F)c3)cc2)ccn1)NO showed IC50 equal to ≤ 100 nM

The compound C[C@@H](Nc1ncnc2[nH]c(-c3ccc(NC(=O)CCCCCCC(=O)NO)cc3)cc12)c1ccccc1 showed IC50 equal to 100 to 1000 nM

The compound C[C@@H](Nc1ncnc2[nH]c(-c3ccc(CN4CCN(CCCCC(=O)NO)CC4)cc3)cc12)c1ccccc1 showed IC50 equal to 100 to 1000 nM

The compound C[C@@H](Nc1ncnc2[nH]c(-c3ccc(C(=O)NCCNCCCCCCC(=O)NO)cc3)cc12)c1ccccc1 showed IC50 equal to 100 to 1000 nM

The compound C[C@@H](Nc1ncnc2[nH]c(-c3ccc(NC(=O)CCCC(=O)NO)cc3)cc12)c1ccccc1 showed IC50 equal to 100 to 1000 nM

The compound C[C@@H](Nc1ncnc2[nH]c(-c3ccc(CN4CCN(CCC(=O)NO)CC4)cc3)cc12)c1ccccc1 showed IC50 equal to 100 to 1000 nM

* * *

As shown below, each of these molecules has a reported IC50 value.
molecular target: Receptor tyrosine-protein kinase erbB-2 (Homo sapiens, UniProt P04626); assay: Inhibition of N-terminal GST-tagged human HER2 (Lys676 to Val1255 residues) expressed in baculovirus expression system using biotinylated FLT3 at Tyr589 as substrate preincubated for 5 mins followed by substrate addition measured after 30 mins by DELFIA method

Previously resolved entries follow.
C[C@@H](Nc1ncnc2[nH]c(-c3ccc(OCCCCCC(=O)NO)cc3)cc12)c1ccccc1 100 to 1000 nM
C[C@@H](Nc1ncnc2[nH]c(-c3ccc(CNCc4ccc(C(=O)NO)cc4)cc3)cc12)c1ccccc1 100 to 1000 nM
O=C(CCCCCCOc1ccc(-c2cc3c(NCc4ccccc4)ncnc3[nH]2)cc1)NO 1000 to 10000 nM

The molecule C#Cc1cccc(Nc2ncnc3cc(OC)c(NC(=O)CCCCCCC(=O)NO)cc23)c1 showed IC50 equal to 100 to 1000 nM

The molecule C[C@@H](Nc1ncnc2[nH]c(-c3ccc(NC(=O)CCC(=O)NO)cc3)cc12)c1ccccc1 showed IC50 equal to 100 to 1000 nM

The molecule C#Cc1cccc(Nc2ncnc3cc(OC)c(OCC(=O)NO)cc23)c1 showed IC50 equal to ≤ 100 nM

The molecule C[C@@H](Nc1ncnc2[nH]c(-c3ccc(NC(=O)CCCCCCC(=O)NO)cc3)cc12)c1ccccc1 showed IC50 equal to 100 to 1000 nM

* * *

biological target: Mast/stem cell growth factor receptor Kit (Homo sapiens); experiment: Inhibition of human N-terminal GST-tagged human c-Kit (Thr544 to Val976 residues) expressed in baculovirus expression system assessed as decrease in biotinylated KDR phosphorylation at Tyr996 preincubated for 5 mins followed by substrate addition measured after 30 mins by DELFIA method
Sequence (P10721 whole entry): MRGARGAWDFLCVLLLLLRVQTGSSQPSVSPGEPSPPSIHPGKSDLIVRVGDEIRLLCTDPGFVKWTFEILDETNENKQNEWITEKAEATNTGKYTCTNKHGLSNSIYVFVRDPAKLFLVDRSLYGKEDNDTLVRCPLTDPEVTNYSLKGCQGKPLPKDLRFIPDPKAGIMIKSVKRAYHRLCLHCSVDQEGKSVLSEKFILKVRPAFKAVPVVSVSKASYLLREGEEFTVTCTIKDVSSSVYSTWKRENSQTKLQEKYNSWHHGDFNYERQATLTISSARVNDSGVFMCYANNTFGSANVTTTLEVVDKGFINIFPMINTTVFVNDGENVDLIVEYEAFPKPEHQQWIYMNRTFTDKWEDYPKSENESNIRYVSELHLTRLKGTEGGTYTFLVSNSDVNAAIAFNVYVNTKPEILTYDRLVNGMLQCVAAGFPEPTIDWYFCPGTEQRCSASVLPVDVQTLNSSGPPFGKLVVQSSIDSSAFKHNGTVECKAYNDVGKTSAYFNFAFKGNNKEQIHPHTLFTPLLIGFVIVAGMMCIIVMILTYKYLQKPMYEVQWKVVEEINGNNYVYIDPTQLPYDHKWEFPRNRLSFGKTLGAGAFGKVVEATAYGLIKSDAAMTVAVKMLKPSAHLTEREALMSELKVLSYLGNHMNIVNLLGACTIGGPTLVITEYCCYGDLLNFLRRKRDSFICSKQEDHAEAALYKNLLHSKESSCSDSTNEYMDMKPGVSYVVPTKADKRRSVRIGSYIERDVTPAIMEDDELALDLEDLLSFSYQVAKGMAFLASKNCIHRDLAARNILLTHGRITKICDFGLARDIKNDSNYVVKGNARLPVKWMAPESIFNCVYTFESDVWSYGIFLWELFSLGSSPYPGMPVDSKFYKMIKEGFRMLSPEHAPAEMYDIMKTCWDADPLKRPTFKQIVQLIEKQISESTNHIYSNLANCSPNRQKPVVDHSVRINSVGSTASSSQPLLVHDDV
pIC50: −log10 of the molar value.
As shown below, each of these compounds has a reported pIC50 value.

Cc1nc(Nc2ncc(C(=O)Nc3c(C)cccc3Cl)s2)cc(N2CCN(CCCCCCC(=O)NO)CC2)n1 ≥ 7.00
Cc1nc(Nc2ncc(C(=O)Nc3c(C)cccc3Cl)s2)cc(N2CCN(CCCCCC(=O)NO)CC2)n1 ≥ 7.00

Read the next record carefully.
The compound Cc1nc(NCCCCCC(=O)NO)cc(Nc2ncc(C(=O)Nc3c(C)cccc3Cl)s2)n1 showed pIC50 equal to ≥ 7.00
